Exercise: state measured Abs 630 (25 nM) for each of the binders provided.
Biological target: T1, human IL-10 receptor (hIL-10R alpha and beta chains) on HEK-Blue IL-10 reporter cells (human, UniProt Q13651 22-578; Q08334 20-325)
T1 sequence 1: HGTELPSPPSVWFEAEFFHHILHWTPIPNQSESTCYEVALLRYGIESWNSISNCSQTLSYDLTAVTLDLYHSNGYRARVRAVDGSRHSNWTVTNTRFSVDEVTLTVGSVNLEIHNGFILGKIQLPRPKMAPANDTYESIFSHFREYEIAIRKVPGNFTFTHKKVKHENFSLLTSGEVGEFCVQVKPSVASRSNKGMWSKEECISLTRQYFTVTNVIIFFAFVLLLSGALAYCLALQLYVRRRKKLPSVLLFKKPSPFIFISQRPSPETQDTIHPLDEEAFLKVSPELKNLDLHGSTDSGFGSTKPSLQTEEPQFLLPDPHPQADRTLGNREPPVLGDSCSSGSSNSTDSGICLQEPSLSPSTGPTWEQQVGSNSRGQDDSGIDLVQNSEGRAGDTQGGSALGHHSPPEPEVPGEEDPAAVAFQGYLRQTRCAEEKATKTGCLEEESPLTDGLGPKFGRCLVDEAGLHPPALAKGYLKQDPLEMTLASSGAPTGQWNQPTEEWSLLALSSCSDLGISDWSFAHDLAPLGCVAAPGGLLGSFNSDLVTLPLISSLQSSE
T1 sequence 2: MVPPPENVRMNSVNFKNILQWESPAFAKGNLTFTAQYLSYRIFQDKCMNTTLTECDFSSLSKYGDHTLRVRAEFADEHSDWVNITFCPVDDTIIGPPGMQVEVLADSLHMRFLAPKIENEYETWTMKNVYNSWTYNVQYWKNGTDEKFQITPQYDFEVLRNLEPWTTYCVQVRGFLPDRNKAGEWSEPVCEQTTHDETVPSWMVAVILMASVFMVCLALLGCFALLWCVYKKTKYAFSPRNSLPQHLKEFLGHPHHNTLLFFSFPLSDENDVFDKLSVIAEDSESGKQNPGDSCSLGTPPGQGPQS
Assay: cell-based or functional assay
Answers are plain numbers, in Abs 630.

>  <binder>
IL10R binding molecule of SEQ ID NO: 270 (bispecific antibody) QVQLQESGGGSVQAGGSLRLSCAASGYTYSMYCMGWFRQAPGKEREGVAQINSDGSTSYADSVKGRFTISKDNAKNTLYLQMNSLKPEDTAMYYCAADSRVYGGSWYERLCGPYTYEYNYWGQGTQVTVSSGGGSQVQLQESGGGSVQAGGSLRLSCAASGYTYSSGCMGWFRQAPGKEREAVAAINSDGSTSYADSVKGRFTISKDNAKNTLYLQMNSLKPEDTAMYYCAAEPYCSGGYPRWSVAEFGYWGQGTQVTVSSASHHHHHH

>  <Abs 630 (25 nM), Abs 630>
1.41

$$$$

// query Requested read-out: Abs 630 (25 nM). Entry: IL10R binding molecule of SEQ ID NO: 266 (bispecific antibody) QVQLQESGGGSVQAGGSLRLSCAASRFTYSSYCMGWFRQAPGKEREGVASIDSDGSTSYTDSVKGRFTISKDNAKNTLYLQMNSLKPEDTAMYYCALDLMSTVVPGFCGFLLSAGMDYWGKGTQVTVSSGGGSQVQLQESGGGSVQAGGSLRLSCTVSRYTASVNYMGWFRQAPGKEREGVATIFTGAGTTYYANSVKGRFTISRDNAKNTAYLQMNSLKPEDTAIYYCAVDFRGGLLYRPAYEYTYRGQGTQVTVSSASHHHHHH
// result 0.49

Values from patent US20250163167A1
